Biological target: T1, Sla1-3, P32790
T1 sequence (P32790 344-424, looked up): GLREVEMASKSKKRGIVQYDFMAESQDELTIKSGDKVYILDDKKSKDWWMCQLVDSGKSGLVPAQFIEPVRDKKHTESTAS
Assay: SPOT array
Settings: median of control spots 5475
SPOT intensity reference

Illustrative cases are given below, each with its answer.
Binder	SPOT intensity
NILKRRPLKLEAPSK	28
HHKRRPTTIDVPGLT	4
NGRRRPKFRVQLSGN	221
NNNKMRPHLPPLSSG	0
PSTMDFPKLPSFQNS	0

[ask] Given the binder `IRMPSNPALPKKLLN` , what is its reported SPOT intensity?
[reply] 0

[ask] How about this binder: `SSSSTPPTLPPRRIE`
[reply] 1

[ask] Would you mind doing `APPLPPTAPPPPSLP` as well?
[reply] 3

[ask] Then this binder: `NMLSRPRLAKLPSIR`
[reply] 25

[ask] Moving on to `KMSRSPPRPPSLKII`
[reply] 88

[ask] Try the binder `QPQRTAPKPPISAPR`
[reply] 9

[ask] Lookup `NSMRPPLLIPAATTK`
[reply] 0

[ask] Can you handle `LKPPIGRPPKFPKSP` next?
[reply] 0

[ask] # iterate: `PPIPNAPLSPAPAVP`
[reply] 0

[ask] Again, but for `NENKKLPPAPTVFGL`
[reply] 1
